system: LOX IMVI; experiment: NCI tumour cell line growth inhibition, 48 h
Calls of active or inactive are those of the source. Rule as the data show it: active = GI50 up to about 1.1 µM and inactive = higher.
Classes used: 1.0 (active), 0.0 (inactive)

# COMPOUND, TARGET_OR_SYSTEM, ASSIGNED_LABEL
data = [
    ("O=c1oc2ccccc2c(-c2ccc(O)cc2)c1Oc1ccc(Cl)cc1", "LOX IMVI", 0.0),
    ("OC(c1ccc(Br)cc1)(c1cccs1)C1CC1 (stereo not given)", "LOX IMVI", 0.0),
    ("CCOC(=O)C1=C(C)N(C2OC(COC(C)=O)C(OC(C)=O)C(OC(C)=O)C2OC(C)=O)C(=O)NC1c1ccccc1 (stereo not given)", "LOX IMVI", 0.0),
    ("O=c1ccn(/C=C/C(O)C(O)CO)c(=O)[nH]1 (stereo not given)", "LOX IMVI", 0.0),
    ("CCN(CC)CCC(=O)N1C/C(=C/c2ccccc2)C(=O)/C(=C\\c2ccccc2)C1", "LOX IMVI", 1.0),
]

* * *

tested on: LOX IMVI; test: NCI tumour cell line growth inhibition, 48 h
Activity calls are given as the source filed them. No stated cut-off is given here; in the data, active = GI50 up to about 1.1 µM and inactive = higher.
Catalogue of GI50 values

# COMPOUND, GI50
measured = [
    ("O=[N+]([O-])c1ccc(N2N=C(c3ccc4ccccc4c3O)CC2c2ccc(Cl)cc2Cl)c([N+](=O)[O-])c1 (stereo not given)", "41.5 µM (inactive)"),
    ("CCOC(=O)C1Cc2ccc3c4c(ccc(c24)C1)CC(C(=O)OCC)C3", "> 100 µM (inactive)"),
    ("O=c1nc(N2CCNCC2)oc2cc(Cl)oc(=O)c12", "2.06 µM (inactive)"),
    ("N=C(N)/N=C(/C=C/c1ccccc1)CC1OC(=O)c2ccccc21 (stereo not given)", "> 100 µM (inactive)"),
    ("CCOC(=O)COC1=Nc2cc(OC)c(OC)c3nc(Cl)cc(c23)C1=O", "1.98 µM (inactive)"),
]

* * *

test system: A549; test: NCI tumour cell line growth inhibition, 48 h
Active and inactive are the calls of the source. Cut-off read from the data, not from the text of the source: active = GI50 up to about 1.1 µM and inactive = higher.
Classes used: Yes = active, No = inactive

# MOLECULE, ASSIGNED_LABEL
records = [
    ("O=C(/C=C\\c1cccc2ccccc12)c1ccc(Br)cc1", "No"),
    ("CCN1C(=O)C(=C/C=C/c2ccc([N+](=O)[O-])cc2)C(=O)N(CC)C1=S", "No"),
    ("Nc1nccc(NCC2(CO)CC(OCc3ccccc3)C2)n1 (stereo unspecified)", "No"),
    ("SC1=NC2(CCCCCC2)NN1c1ccccc1", "Yes"),
    ("CC1=NNC(=O)C1C1CC(c2c[nH]c3ccccc23)=NN=C1Cl (stereo unspecified)", "No"),
    ("COc1ccc(CNc2cc(OC)c(OC)c(OC)c2)cc1", "No"),
    ("O=C(Nc1cccc(-c2cn3ccccc3n2)c1)c1ccncc1", "No"),
    ("CCOP(=O)(OCC)C(Cc1ccccc1)N=C(c1ccccc1)c1ccccc1 (stereo unspecified)", "No"),
    ("CN1/C(=N\\c2ccccc2)S/C1=N/c1ccccc1", "No"),
    ("CCOC(=O)C1(Cc2ccc3c(c2)CCC3)Cc2cc3c(cc2C1=O)CCC3 (stereo unspecified)", "No"),
    ("Cc1cc(O)c2c(c1)C(C1OC(CO)C(O)C(O)C1O)c1cc(O)cc(O)c1C2=O (stereo unspecified)", "No"),
    ("COC(=O)C1Cc2c([nH]c3ccccc23)-c2[nH]c3ccccc3c2CC(NC(C)=O)C(=O)NCC(=O)N1 (stereo unspecified)", "No"),
    ("COc1ccc(CCn2ccc(=O)c(O)c2C)cc1OC", "No"),
    ("COC1=CC(=O)c2c(O)c3c(c(O)c2C1=O)C=C(C)OC3O (stereo unspecified)", "No"),
    ("O=[N+]([O-])c1cc(Cl)ccc1S(=O)(=O)c1ccc(Cl)cc1[N+](=O)[O-]", "No"),
    ("N#CC1(C#N)C(c2ccccc2)C=CC(c2ccc([N+](=O)[O-])cc2)C1(C#N)C#N (stereo unspecified)", "No"),
    ("COC(=O)C(Cc1ccccc1)NC(=O)CNC(=O)CSc1nnc(COc2ccc(Cl)cc2)n1-c1ccccc1 (stereo unspecified)", "No"),
    ("Cc1n[nH]c(=O)n1/N=C/c1ccc([N+](=O)[O-])o1", "No"),
    ("Cc1cc(C)c(C[C@H]2COC(=O)[C@]2(O)Cc2c(C)cc(C)cc2C)c(C)c1", "No"),
    ("Cc1nnc(N/N=C(/C(=O)C(C#N)c2ccc(Cl)cc2)C(C#N)c2ccc(Cl)cc2)n1N (stereo unspecified)", "No"),
    ("O=c1/c(=C/c2ccc3c(c2)OCO3)sc2nnc(-c3ccco3)n12", "No"),
]

* * *

tested on: OVCAR-8; experiment: NCI tumour cell line growth inhibition, 48 h
Active and inactive are the calls of the source. Cut-off read from the data, not from the text of the source: active = GI50 up to about 1.1 µM and inactive = higher.

# MOLECULE, GI50
records = [
    ("O=C(c1cc(Cl)cc(Cl)c1)N(C(=S)OC12CC3CC(CC(C3)C1)C2)c1ccccc1", "41.7 µM (inactive)"),
    ("Cc1cc2c(C)n(Cc3ccc(Cl)cc3Cl)nc2c(C(=O)O)c1C", "> 100 µM (inactive)"),
    ("Nc1nc2ccc(OCC(O)CN3CCCCC3)cc2[n+]([O-])n1 (configuration not stated)", "> 100 µM (inactive)"),
    ("O=S1(=O)Cc2ccc3c4c2-c2c(ccc5ccc(c-4c25)CS(=O)(=O)C3)C1", "90.2 µM (inactive)"),
    ("O=C1NC(=S)NC1C(Cc1ccccc1)c1ccco1 (configuration not stated)", "> 100 µM (inactive)"),
    ("N#CC(C(=O)c1cccnc1Cl)c1nc2cc(C(F)(F)F)ccc2s1 (configuration not stated)", "> 100 µM (inactive)"),
    ("COc1cc(O)c2c(O)c3c(=O)oc(C)cc3c(OC)c2c1 [PAEPALANTINE]", "27.2 µM (inactive)"),
    ("CC(C)(C)OC(=O)N[C@H]1CC(O)c2ccccc2N(CC(=O)O)C1=O (some centres not stated)", "> 100 µM (inactive)"),
    ("CN1CCC2(CC1)C(=O)N(NC(N)=O)C(=O)C2c1ccccc1 (configuration not stated)", "> 100 µM (inactive)"),
    ("CC(C)CC(=O)CC(O)C(Cl)(Cl)Cl (configuration not stated)", "> 100 µM (inactive)"),
    ("O=[N+]([O-])c1ccc(N2N=C(c3ccc4ccccc4c3O)CC2c2ccc(Cl)cc2Cl)c([N+](=O)[O-])c1 (configuration not stated)", "33.3 µM (inactive)"),
    ("COc1ncnc2c(Cl)c(C(O)c3ccccc3)c(Cl)cc12 (configuration not stated)", "30.5 µM (inactive)"),
    ("COc1ccc(/C=C/C(=O)N[C@@H]2C(=O)N3[C@@H]2SC(C)(C)[C@@H]3C(=O)O)cc1OC", "> 100 µM (inactive)"),
    ("SC1=NC2(CCCCCC2)NN1c1ccccc1", "15.5 µM (inactive)"),
    ("O=c1/c(=C/c2ccc3c(c2)OCO3)sc2nnc(-c3ccco3)n12", "> 100 µM (inactive)"),
    ("Nc1ccc2c(SCC(=O)Nc3ccccc3-c3ccccc3NC(=O)CSc3c4ccccc4nc4cc(N)ccc34)c3ccccc3nc2c1", "26.3 µM (inactive)"),
    ("Cc1nn(-c2ccccc2)c(S)c1C(=O)c1ccccc1", "14.9 µM (inactive)"),
    ("Fc1cc(C2=C[C@H](c3ccc(Cl)cc3)NC(=S)N2)c(Cl)cc1Cl", "39.9 µM (inactive)"),
    ("Cc1n(-c2ccccc2)c2c([n+]1Cc1ccc([N+](=O)[O-])cc1)C(=O)c1ccccc1C2=O", "2.37 µM (inactive)"),
    ("CN(C)CCSS(=O)(=O)O", "> 100 µM (inactive)"),
    ("CCOP(=O)(OCC)/C(=C\\N1C(=O)CC(=O)NC1=S)C(=O)OC", "> 100 µM (inactive)"),
    ("O=C(O)c1ccccc1-c1ccccc1C(=O)c1ccccc1", "> 100 µM (inactive)"),
]

* * *

test system: PC-3; assay: NCI tumour cell line growth inhibition, 48 h
Active and inactive are the calls of the source. No stated cut-off is given here; in the data, active = GI50 up to about 1.1 µM and inactive = higher.
Classes used: 1 = active, 0 = inactive

# MOLECULE, ASSIGNED_LABEL
rows = [
    ("CCCNC(=O)c1cc(NC(=O)c2cc(NC(=O)/C=C/c3ccccc3)c(OC)c(OC)c2)c(OC)c(OC)c1", 0),
    ("CN(C)CCNC(=O)c1ccc(Cl)c2cc3ccccc3nc12", 1),
    ("COc1cc(-c2ccccc2N)c2cccnc2c1OC", 0),
    ("COc1ccc2c(N=[N+]=[N-])c(-c3ccccc3)c(=O)oc2c1", 0),
    ("NNC(=O)C1(NC(=O)c2ccccc2)C(c2ccccc2)C(c2ccccc2)=NN1c1ccccc1 (stereo not given)", 0),
    ("O=S(=O)(/N=C(\\NO)Nc1ccc(Cl)cc1)c1cccc2nsnc12", 0),
    ("CC12CCCC(C(=O)O)(C1)[C@H](C(C)(C)C(=O)O)CC2 (stereo not given in full)", 0),
    ("COc1cc2c(cc1C)NC(=O)/C2=C/c1cccnc1", 0),
    ("C/C(=C(/C)c1ccc(O)cc1)c1ccc(O)cc1 [DIMETHYLSTILBESTROL]", 0),
    ("O=C1CSC(c2cccs2)N1c1nc2cc3sc(N4C(=O)CSC4c4cccs4)nc3cc2s1 (stereo not given)", 0),
    ("CC(CCC#N)(CCC#N)C(=O)CC(O)(C(F)(F)F)C(F)(F)F", 0),
    ("Cc1cc2c(nn1)-c1ccccc1C2=O", 0),
    ("CC1(C)C2C=CC1(C)C1(CC2)OCCO1 (stereo not given)", 0),
    ("Clc1ccc(Cc2nc3cc(Cl)ccc3o2)cc1", 0),
    ("NC(Cc1ccc(S(=O)(=O)O)cc1)C(=O)NC(Cc1ccc(S(=O)(=O)O)cc1)C(=O)NC(Cc1ccc(S(=O)(=O)O)cc1)C(=O)NC(Cc1ccc(S(=O)(=O)O)cc1)C(=O)O (stereo not given)", 0),
    ("CCOC(=O)N1N(c2ccccc2)C(=O)C1(c1ccccc1)c1ccccc1", 0),
    ("CCOC(=O)c1c(CN2CCNCC2)nc2ccccc2c1-c1ccccc1", 0),
    ("CN(C(=O)C12C3C4(C(=O)O)C1(C(=O)N(C)C(C)(C)C)C1C2(C(=O)O)C3(C(=O)N(C)C(C)(C)C)C14C(=O)N(C)C(C)(C)C)C(C)(C)C (stereo not given)", 0),
    ("COC1CC(OC2CCC3(C)C(CCC45CCC(C6=CC(=O)OC6)C(C)(CCC43)C5=O)C2)OC(C)C1O (stereo not given)", 0),
    ("O=C(O)c1nc2ccc(C(F)(F)F)cc2nc1NCc1ccc(Cl)c(Cl)c1", 0),
]
